# credit: ChEMBL document CHEMBL4680121

test system: Staphylococcus aureus; experiment: Antibacterial activity against Staphylococcus aureus ATCC 6538 assessed as bacterial growth inhibition measured after 18 hrs by two-fold serial microdilution method; assay type: functional
recordedEndpoint: MIC

> print(dat)
                          itemsmiles  valuemeasured
1     COc1ccc(-n2nnnc2Nc2ccccc2F)cc1    > 256 µg/mL
2  COc1ccc(Nc2nnnn2-c2cccc(Cl)c2)cc1    > 256 µg/mL
3  COc1ccc(-n2nnnc2Nc2cccc(Br)c2)cc1    > 256 µg/mL

Query :: Record lookup: for Staphylococcus aureus, what MIC belongs to COc1ccc(-n2nnnc2Nc2ccc(Cl)cc2)cc1 ?
Result :: 128 µg/mL

Query :: Record lookup: for Staphylococcus aureus, what MIC belongs to COc1ccc(Nc2nnnn2-c2ccccc2F)cc1 ?
Result :: 64 µg/mL

Query :: Record lookup: for Staphylococcus aureus, what MIC belongs to COc1ccc(-n2nnnc2Nc2ccc(Br)cc2)cc1 ?
Result :: > 256 µg/mL

Query :: Record lookup: for Staphylococcus aureus, what MIC belongs to COc1ccc(NC(=S)Nc2ccc(Cl)cc2)cc1 ?
Result :: > 256 µg/mL

Query :: Record lookup: for Staphylococcus aureus, what MIC belongs to COc1ccc(Nc2nnnn2-c2ccc(F)cc2)cc1 ?
Result :: 64 µg/mL

Query :: Record lookup: for Staphylococcus aureus, what MIC belongs to COc1ccc(NC(=S)Nc2cccc(F)c2)cc1 ?
Result :: > 256 µg/mL
